// cross-study collection: IC50 for human LTA4 hydrolase (Homo sapiens, UniProt P09960)
Give a bare numeral; the unit nM is implied.

COMPOUND: c1ccc2c(c1)OCC(c1ccc(CNC3CCCC3)cc1)O2 (centres unmarked)
VALUE UNIT: nM
IC50: 3.71

COMPOUND: CS(=O)(=O)C1CCN(Cc2ccc(C3COc4ccccc4O3)cc2)CC1 (centres unmarked)
VALUE UNIT: nM
IC50: 2.14

COMPOUND: CC(C)(O)C1CCN(Cc2ccc(C3COc4ccccc4O3)cc2)CC1 (centres unmarked)
VALUE UNIT: nM
IC50: 3.4

Exercise: Endpoint output: IC50 of `COC[C@H](C)N(C)Cc1nc2cc(Oc3ccc(-c4ccn[nH]4)cc3)ccc2[nH]1` . Value?
Key: 0.077

Exercise: Endpoint output: IC50 of `Cc1nccn1CCOc1ccc(Oc2ccc(-c3ccn[nH]3)cc2)cc1` . Value?
Key: 0.3

Exercise: Endpoint output: IC50 of `O=C(CO)N1C[C@@H]2C[C@H]1CN2Cc1ccc2cc(Oc3ccc(-c4ccn[nH]4)cn3)ccc2n1` . Value?
Key: 0.39

Exercise: Endpoint output: IC50 of `COC(C)(C)C(=O)N1CCN(Cc2ccc3cc(Oc4ccc(-c5ccn[nH]5)cn4)ccc3n2)CC1` . Value?
Key: 0.56

====

// cross-study collection: pIC50 for human LTA4 hydrolase (Homo sapiens)
Note on units: pIC50 is unitless, being -log10 of a concentration expressed in mol/L.

# example entries with known answers
COMPOUND: CC(C)(O)C(=O)N1CCN(Cc2cnc3cc(Oc4ccc(-c5ccn[nH]5)cn4)ccc3c2)CC1
pIC50: 8.80
//
COMPOUND: O=C(O)c1nc2cc(Oc3ccc(-c4cc[nH]n4)cc3)ccc2[nH]1
pIC50: 8.41
//
COMPOUND: CC(CCOc1ccc(Oc2ccc(-c3ccn[nH]3)cc2)cc1)n1cccn1 (stereo not drawn)
pIC50: 8.40
//
COMPOUND: CC(=O)NC1CCN(CCCn2cc3cc(Oc4ccc(-c5ccn[nH]5)cc4)ccc3n2)CC1
pIC50: 9.02
//
COMPOUND: c1cc(-c2ccc(Oc3ccc(OCc4ccsc4)cc3)cc2)[nH]n1
pIC50: 7.19
//
COMPOUND: CC(Oc1ccc(Oc2ccc(-c3ccn[nH]3)cc2)cc1)c1ccncc1 (stereo not drawn)
pIC50: 7.77
//
COMPOUND: CN(Cc1nc2cc(Oc3ccc(-c4ccn[nH]4)cc3)ccc2[nH]1)C1CC1
pIC50: 9.70
//
COMPOUND: OCC1CCN(Cc2ccc(C3COc4ccccc4O3)cc2)CC1 (stereo not drawn)
pIC50: 8.92

Let us examine a further case.
Exercise: State its pIC50 on human LTA4 hydrolase (Homo sapiens): `c1cc(-c2ccc(Oc3ccc(OCc4ccc5nccn5c4)cc3)cc2)[nH]n1`
Key: 9.05

====

// cross-study collection: IC50 for human LTA4 hydrolase (Homo sapiens, UniProt P09960)
Give a bare numeral; the unit nM is implied.

# example entries with known answers
MOLECULE: O=C(C1CCN(Cc2ccc(C3COc4ccccc4O3)cc2)CC1)N1CCOCC1 (racemic)
TESTED ON: human LTA4 hydrolase (Homo sapiens, UniProt P09960)
Sequence (P09960 whole entry): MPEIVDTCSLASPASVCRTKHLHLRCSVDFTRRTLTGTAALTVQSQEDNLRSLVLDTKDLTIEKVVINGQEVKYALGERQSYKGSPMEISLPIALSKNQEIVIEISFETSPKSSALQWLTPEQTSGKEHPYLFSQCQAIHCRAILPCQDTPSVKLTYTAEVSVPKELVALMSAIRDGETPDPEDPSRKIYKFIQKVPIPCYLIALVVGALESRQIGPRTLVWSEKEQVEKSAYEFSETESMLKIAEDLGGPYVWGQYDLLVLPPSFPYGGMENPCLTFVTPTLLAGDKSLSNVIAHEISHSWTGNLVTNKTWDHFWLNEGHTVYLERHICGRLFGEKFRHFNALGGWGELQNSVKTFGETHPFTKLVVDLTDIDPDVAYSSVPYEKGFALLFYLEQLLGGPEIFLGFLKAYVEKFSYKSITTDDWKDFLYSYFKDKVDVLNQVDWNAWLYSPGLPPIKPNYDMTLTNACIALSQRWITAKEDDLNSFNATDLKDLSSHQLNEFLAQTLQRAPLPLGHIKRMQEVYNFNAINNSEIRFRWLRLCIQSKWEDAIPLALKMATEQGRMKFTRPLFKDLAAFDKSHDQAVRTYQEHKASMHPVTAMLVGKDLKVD
MEASURED ENDPOINT: IC50
OBSERVED: 1.05
--
MOLECULE: O=C(O)CCCC1CCN(Cc2ccc(C3COc4ccccc4O3)cc2)CC1 (racemic)
TESTED ON: human LTA4 hydrolase (Homo sapiens, UniProt P09960)
MEASURED ENDPOINT: IC50
OBSERVED: 0.43
--
MOLECULE: CC(C)(C)C(=O)N1CCN(Cc2cnc3cc(Oc4ccc(-c5ccn[nH]5)cn4)ccc3c2)CC1
TESTED ON: human LTA4 hydrolase (Homo sapiens, UniProt P09960)
MEASURED ENDPOINT: IC50
OBSERVED: 1.7

Let us examine a further case.
Exercise: State its IC50 on human LTA4 hydrolase (Homo sapiens, UniProt P09960): `O=C1[C@@H](O)CCN1C1CCN(C[C@@H]2Cc3ccc(Oc4ccc(-c5ccn[nH]5)cn4)cc3O2)CC1`
Key: 1.2

====

// cross-study collection: pIC50 for human LTA4 hydrolase (Homo sapiens, UniProt P09960)
Note on units: pIC50 is unitless, being -log10 of a concentration expressed in mol/L.

# example entries with known answers
COMPOUND: C[C@@H]1CCCCN1Cc1nc2cc(Oc3ccc(-c4ccn[nH]4)cc3)ccc2[nH]1
pIC50: 10.12
--
COMPOUND: c1cnn(-c2ccc(COc3ccc(Oc4ccc(-c5ccn[nH]5)cc4)cc3)cn2)c1
pIC50: 8.72
--
COMPOUND: COC1CCN(Cc2ccc(C3COc4ccccc4O3)cc2)C1 (stereo not drawn)
pIC50: 8.76
--
COMPOUND: CN(Cc1nc2cc(Oc3ccc(-c4ccn[nH]4)cc3)ccc2[nH]1)[C@@H]1CCOC1
pIC50: 10.05
--
COMPOUND: c1cc(COc2ccc(Oc3ccc(-c4ccn[nH]4)cc3)cc2)ccn1
pIC50: 8.41
--
COMPOUND: c1cc(-c2ccc(Oc3ccc4nc(CN5CCCC5)cn4c3)cc2)[nH]n1
pIC50: 9.77
--
COMPOUND: O=C1CCCN1CC1CCN(Cc2ccc(C3COc4ccccc4O3)cc2)CC1 (stereo not drawn)
pIC50: 9.22
--
COMPOUND: c1cc(-c2ccc(Oc3ccc4[nH]c(CN[C@H]5CCOC5)nc4c3)cc2)[nH]n1
pIC50: 9.74

Exercise: State its pIC50 on human LTA4 hydrolase (Homo sapiens, UniProt P09960): `c1cc(-c2ccc(Oc3ccc(O[C@@H]4CCOC4)cc3)cc2)[nH]n1`
Key: 8.41

Exercise: State its pIC50 on human LTA4 hydrolase (Homo sapiens, UniProt P09960): O=S1(=O)CC2CC1CN2Cc1ccc2cc(Oc3ccc(-c4ccn[nH]4)cc3)ccc2n1 (stereo not drawn)
Key: 8.96

Exercise: State its pIC50 on human LTA4 hydrolase (Homo sapiens, UniProt P09960): `c1cc(-c2cnc(Oc3ccc4nc(CN5CCCC5)ccc4c3)nc2)[nH]n1`
Key: 8.77

Exercise: State its pIC50 on human LTA4 hydrolase (Homo sapiens, UniProt P09960): `c1cc(-c2ccc(Oc3ccc4nc(CN5CCCC5)ccc4c3)nc2)[nH]n1`
Key: 9.62

====

// cross-study collection: IC50 for human LTA4 hydrolase (Homo sapiens)
Lab note: compare IC50 with 0.6 nM, writing YES if less and NO if equal or more.

The examples below pair each entry with its known result.
MOLECULE: N#CCC(=O)N1CCN(Cc2ccc3cc(Oc4ccc(-c5ccn[nH]5)cn4)ccc3n2)CC1
TESTED ON: human LTA4 hydrolase (Homo sapiens)
CATEGORY: NO
--
MOLECULE: OC[C@@H]1CCN(Cc2ccc3cc(Oc4ccc(-c5ccn[nH]5)cn4)ccc3c2)C1
TESTED ON: human LTA4 hydrolase (Homo sapiens)
CATEGORY: NO
--
MOLECULE: OC1CCN(Cc2ccc3cc(Oc4ccc(-c5ccn[nH]5)cn4)ccc3c2)CC1
TESTED ON: human LTA4 hydrolase (Homo sapiens)
CATEGORY: YES
--
MOLECULE: O[C@@H]1CCN(Cc2cnc3cc(Oc4ccc(-c5ccn[nH]5)cn4)ccc3c2)C1
TESTED ON: human LTA4 hydrolase (Homo sapiens)
CATEGORY: NO

Exercise: Bench note: check whether CC(=O)N1CCCN(CCC2COc3cc(Oc4ccc(-c5ccn[nH]5)cn4)ccc32)CC1 (centres unmarked) shows IC50 below 0.6 nM
Key: YES

====

// cross-study collection: IC50 for UniProt P09960
Include the unit after the number when you answer.

# example entries with known answers
CPD SMILES: O=C1N[C@H](COc2ccc(Oc3ccc(-c4ccn[nH]4)cn3)cc2)CO1
OBSERVED: 0.2 nM

CPD SMILES: CC(C)(O)C(=O)N1CCN(Cc2ccc3cc(Oc4ncc(-c5ccn[nH]5)cn4)ccc3c2)CC1
OBSERVED: 2.2 nM

Let us examine a further case.
Exercise: State its IC50 on UniProt P09960: `COCC(=O)N1CCN(Cc2cnc3cc(Oc4ccc(-c5ccn[nH]5)cn4)ccc3c2)CC1`
Key: 1.4 nM

====

// cross-study collection: pIC50 for human LTA4 hydrolase (Homo sapiens, UniProt P09960)
Note on units: pIC50 is unitless, being -log10 of a concentration expressed in mol/L.

COMPOUND: COCCN(CCOC)Cc1nc2cc(Oc3ccc(-c4ccn[nH]4)cc3)ccc2[nH]1
TESTED ON: human LTA4 hydrolase (Homo sapiens, UniProt P09960)
pIC50: 9.64

Exercise: State its pIC50 on human LTA4 hydrolase (Homo sapiens, UniProt P09960): `CC(=O)NCCNCc1ccc2cc(Oc3ccc(-c4ccn[nH]4)cn3)ccc2n1`
Key: 8.82

Exercise: State its pIC50 on human LTA4 hydrolase (Homo sapiens, UniProt P09960): `CC1(C)CCN(Cc2nc3cc(Oc4ccc(-c5ccn[nH]5)cc4)ccc3[nH]2)C1=O`
Key: 9.59

Exercise: State its pIC50 on human LTA4 hydrolase (Homo sapiens, UniProt P09960): `NC(=O)[C@H]1[C@@H]2CN(Cc3ccc4cc(Oc5ccc(-c6ccn[nH]6)cn5)ccc4n3)C[C@@H]21`
Key: 9.31

Exercise: State its pIC50 on human LTA4 hydrolase (Homo sapiens, UniProt P09960): O=C(CO)N1CCC2(CCN(Cc3coc4cc(Oc5ccc(-c6ccn[nH]6)cn5)ccc34)C2)C1 (stereo not shown)
Key: 9.37

Exercise: State its pIC50 on human LTA4 hydrolase (Homo sapiens, UniProt P09960): `O=C1OCCCN1C1CCN(Cc2ccc3cc(Oc4ccc(-c5ccn[nH]5)cn4)ccc3n2)CC1`
Key: 9.28

Exercise: State its pIC50 on human LTA4 hydrolase (Homo sapiens, UniProt P09960): `c1cc(-c2ccc(Oc3ccc(OCC4CCOCC4)cc3)cc2)[nH]n1`
Key: 8.34

Exercise: State its pIC50 on human LTA4 hydrolase (Homo sapiens, UniProt P09960): `CC(=O)N1CCN(CCn2cc3cc(Oc4ccc(-c5ccn[nH]5)cc4)ccc3n2)CC1`
Key: 9.24

Exercise: State its pIC50 on human LTA4 hydrolase (Homo sapiens, UniProt P09960): `COCCN1CCN(Cc2nc3cc(Oc4ccc(-c5ccn[nH]5)cc4)ccc3[nH]2)CC1`
Key: 9.68
